I'd appreciate it if you could supply Percent Effect values for the items below.
Tested on: Wolbachia pipientis
Test: Anti-Wolbachia Cell-Based Screen
Format: functional
Set-up: scale not given: in the data most compounds retested in dose-response had high values
Settings: 5 µM
About 13,000 (27%) of roughly 48,000 compounds showed an effect of 50% or more. This is one part of the list.
Write the answer as a number in %, unit excluded.

Can you look up the measured Percent Effect of COCC(=O)Nc1ccccc1-c1ccc(=O)n(C)n1 for me?
7.916

Can you look up the measured Percent Effect of O=C(NCCNC(=O)C1CCCCC1)NCCn1cccc1 for me?
0.3641

Can you look up the measured Percent Effect of N#Cc1ncn(CC(=O)N2CCCC2c2cccs2)n1 (configuration not stated) for me?
-17.52

Can you look up the measured Percent Effect of Cc1noc(C)c1CCCNC(=O)C1CCN(C(C)C)CC1 for me?
1.059

Can you look up the measured Percent Effect of CC(C)Nc1ccc2c(c1)C1(CCOCC1)C(=O)N2c1ccsc1 for me?
-5.936

Can you look up the measured Percent Effect of Cc1cc(-c2ccc(=O)n(CCNC(=O)C3CCC3)n2)c(C)o1 for me?
82.02

Can you look up the measured Percent Effect of O=C(NCCCNC(=O)C1CCC1)NCCn1cccc1 for me?
-4.539

Can you look up the measured Percent Effect of Cc1noc(C)c1CCCNC(=O)C1CCN(C(=O)C2CCC2)CC1 for me?
9.148

Can you look up the measured Percent Effect of Cc1cc(C(O)CCNC(=O)COc2ccccc2F)c(C)o1 (configuration not stated) for me?
1.741

Can you look up the measured Percent Effect of Cn1c(=O)[nH]c(=O)c2cc(C(=O)N3CCCC3C3CCCC3)cnc21 (configuration not stated) for me?
9.231

Can you look up the measured Percent Effect of Cc1cc(-c2ccc(=O)n(CCNC(=O)C3CC3)n2)c(C)o1 for me?
72.81

Can you look up the measured Percent Effect of Cc1cc(-c2ccc(=O)n(CCNC(=O)C3CCCCC3)n2)c(C)o1 for me?
127.3

* * *

System: Wolbachia pipientis
Assay: Anti-Wolbachia Cell-Based Screen
Type: functional
Parameters: scale not given: in the data most compounds retested in dose-response had high values
Settings: 5 µM
Hit rate of the full screen: of about 48,000 compounds, about 13,000 (27%) showed an effect of 50% or more. This is one part of the list.
I'd appreciate it if you could supply Percent Effect values for the items below.
Show the value, then the unit it is measured in.

Can you look up the measured Percent Effect of O=C(Nc1cc2c(cc1Br)OCCO2)NC1CCS(=O)(=O)C1 (configuration not stated) for me?
-24.26%

Can you look up the measured Percent Effect of COCc1nnc(NC(=O)CN2C(=O)c3ccccc3NC2C(C)C)s1 (configuration not stated) for me?
107.7%

Can you look up the measured Percent Effect of CC1(C)CCC(C(=O)O)c2ccccc21 (configuration not stated) for me?
1.78%

Can you look up the measured Percent Effect of O=C(c1ccno1)N1CCC2(CC1)C(=O)Nc1ccccc12 for me?
0.1339%

Can you look up the measured Percent Effect of CCC(=O)Nc1nnc(CCOc2cccc(OC)c2)s1 for me?
0.4737%

Can you look up the measured Percent Effect of CCS(=O)(=O)N1CCC2(CC1)CN(C(=O)N(C)C)Cc1ccccc12 for me?
-41.7%

Can you look up the measured Percent Effect of Cn1nnc2c1C(COCC1CC1)CN(C(=O)Cc1ccccn1)C2 (configuration not stated) for me?
3.096%

Can you look up the measured Percent Effect of CCC(NC(=O)C1CCN(S(=O)(=O)N(C)C)CC1)c1ccc(C)c(C)c1 (configuration not stated) for me?
-8.706%

Can you look up the measured Percent Effect of NC(=O)CS(=O)(=O)Cc1ccc(OCc2ccc(F)cc2)cc1 for me?
-22.33%

Can you look up the measured Percent Effect of Cc1ccc(OCCC(=O)NC(C)c2ccncc2)cc1 (configuration not stated) for me?
-14.45%

Can you look up the measured Percent Effect of COCC(=O)NC(Cc1cc(N(C)C)nc(C2CC2)n1)c1ccccc1 (configuration not stated) for me?
113.9%

Can you look up the measured Percent Effect of CNC(=O)[C@@H]1COC[C@H]2CN(C(=O)c3cccc(OC)c3)C[C@H]21 for me?
4.207%

Can you look up the measured Percent Effect of Nc1cc2c(nn1)CCN(C(=O)c1csc(-c3ccccc3)n1)C2 for me?
1.599%

Can you look up the measured Percent Effect of CC1CCN(CC(O)CNc2ccc(Cl)cn2)CC1 (configuration not stated) for me?
15.58%

Can you look up the measured Percent Effect of COCCN1CC2(CCN(Cc3ccco3)CC2)c2ccccc21 for me?
-16.07%

Can you look up the measured Percent Effect of CC(NS(N)(=O)=O)c1ccc(OCc2ccc(F)cc2)cc1 (configuration not stated) for me?
111.6%

Can you look up the measured Percent Effect of CCN(C(=O)c1cccc2c1OCO2)c1ccc(Br)cn1 for me?
-0.9868%

Can you look up the measured Percent Effect of O=C(c1cccnc1)N1CCC(Oc2cccc(C(F)(F)F)c2)CC1 for me?
6.335%

Can you look up the measured Percent Effect of CC(C)c1nnc(NC(=O)CN2C(=O)c3ccccc3NC2C(C)C)s1 (configuration not stated) for me?
94.59%

Can you look up the measured Percent Effect of COCCN1Cc2ccccc2C2(CCN(C(=O)c3ccno3)CC2)C1 for me?
106.5%

Can you look up the measured Percent Effect of CC(C)c1noc(CN(C)C(=O)c2ncn[nH]2)n1 for me?
4.654%

Can you look up the measured Percent Effect of COCCN1Cc2ccccc2C2(CCN(C(=O)c3ccco3)CC2)C1 for me?
91.37%

Can you look up the measured Percent Effect of CNc1cccc(C2CCN(C(=O)c3cccnc3)CC2)n1 for me?
107.8%

Can you look up the measured Percent Effect of CCc1nnc(CN2CCC(C3CCCCCN3C(=O)C3CC3)CC2)o1 (configuration not stated) for me?
5.041%

Can you look up the measured Percent Effect of Cc1cccc(COc2ccc(C(C)NC(=O)CNC(N)=O)cc2)c1 (configuration not stated) for me?
98.3%

Can you look up the measured Percent Effect of CNc1cccc(C2CCCN(C(=O)c3cncs3)C2)n1 (configuration not stated) for me?
121.7%

Can you look up the measured Percent Effect of Cc1cc(C)n(-c2ccc(C(C)NS(N)(=O)=O)cc2)n1 (configuration not stated) for me?
-26.74%

Can you look up the measured Percent Effect of CNc1cccc(C2CCCN(C(=O)c3cscn3)C2)n1 (configuration not stated) for me?
98.56%

Can you look up the measured Percent Effect of O=C(NCC(Cc1cccc(F)c1)n1cccc1)C1CC1 (configuration not stated) for me?
6.756%

Can you look up the measured Percent Effect of Cc1nccn1-c1cc(CNC(=O)COCC2CC2)ccn1 for me?
-10.58%

Can you look up the measured Percent Effect of COc1ccccc1N1CCN(C(=O)c2ccoc2)CC1 for me?
4.438%

Can you look up the measured Percent Effect of Cc1ccsc1C(Cc1ccccc1)NC(=O)CNC(=O)C1CC1 (configuration not stated) for me?
-6.693%

Can you look up the measured Percent Effect of CCC(=O)NC(Cc1cc(N(C)C)nc(C2CC2)n1)c1ccccc1 (configuration not stated) for me?
105%

Can you look up the measured Percent Effect of CC(C)c1nnc(NC(=O)N2CCCC2c2ccncc2)s1 (configuration not stated) for me?
0.4499%

Can you look up the measured Percent Effect of Cc1cccc(CNCCOc2ccc(S(C)(=O)=O)cc2)c1 for me?
16.11%

Can you look up the measured Percent Effect of Cc1cc(C)cc(CCC(=O)NC(C)c2nnn[nH]2)c1 (configuration not stated) for me?
-2.993%

Can you look up the measured Percent Effect of CC(=O)N(C)CC(=O)Nc1cnc(-n2ccnc2C)nc1 for me?
9.823%

Can you look up the measured Percent Effect of CC(NCCc1nccn1Cc1ccccc1)c1cccs1 (configuration not stated) for me?
7.205%

Can you look up the measured Percent Effect of O=C(Nc1cnc2n1CCCC2)c1cccc(-n2cnnc2)c1 for me?
-1.722%

Can you look up the measured Percent Effect of CC(C)N(CC(N)=O)Cc1cccc(C(F)(F)F)c1 for me?
-6.914%

Can you look up the measured Percent Effect of COCCN1C[C@H]2CN(C(=O)c3ccno3)CCN2C1=O for me?
3.514%

Can you look up the measured Percent Effect of Cc1noc(CN(Cc2ccco2)Cc2cccc3c2OCO3)n1 for me?
-16.92%

Can you look up the measured Percent Effect of CS(=O)(=O)Cc1ccc(OCc2ccc(F)cc2)cc1 for me?
-17.41%

Can you look up the measured Percent Effect of Cc1ccccc1NC(=O)NCCn1nc(C(F)(F)F)n(C)c1=O for me?
4.371%

Can you look up the measured Percent Effect of O=C1N[C@@H]2CCN(C(=O)N3CCOCC3)[C@@H]2C(=O)N1Cc1ccccc1 for me?
7.346%

Can you look up the measured Percent Effect of COCCN1CCC2(CC1)CC1(CCN(S(C)(=O)=O)CC1)N(C)C2=O.O=C(O)C(F)(F)F for me?
-9.423%

Can you look up the measured Percent Effect of CCC(=O)NC1CCCN(C(=O)Nc2cc(-c3ccccc3)on2)C1 (configuration not stated) for me?
-16.23%

Source of measurements: ChEMBL document CHEMBL3988442
